target: T1, human CCR8 (human, UniProt P51685 1-355); assay: flow cytometry, hCCR8 transfected CHOK1 cells
T1 construct: also called hCCR8; hCCR8_P51685
Entries annotated with measured MFI fold change to isotype ctrl
# number only, unit fold dropped from output

Please review the following examples before continuing.
{"BINDER": "anti-CCR8 mAb 2-6 (antibody, V domains shown) VH: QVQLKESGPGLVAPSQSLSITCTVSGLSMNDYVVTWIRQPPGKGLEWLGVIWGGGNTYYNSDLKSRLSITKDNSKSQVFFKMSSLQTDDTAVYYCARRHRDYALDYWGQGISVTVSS VL: ENVLTQSPAIMSASPGEKVTMTCRASSSVSSSYLHWYQQKSGASPKLWIYSTSNLASGVPARFSGSGSGTSYSLTISSVEAEDAATYYCQQYSGYPYTFGGGTKLEIK", "RESULT UNITS": "fold", "MFI fold change to isotype ctrl": 5.81}
{"BINDER": "anti-CCR8 mAb 2-1 (antibody, V domains shown) VH: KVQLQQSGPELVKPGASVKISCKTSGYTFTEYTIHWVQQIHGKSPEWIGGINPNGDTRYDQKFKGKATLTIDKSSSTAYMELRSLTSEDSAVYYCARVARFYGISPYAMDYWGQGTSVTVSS VL: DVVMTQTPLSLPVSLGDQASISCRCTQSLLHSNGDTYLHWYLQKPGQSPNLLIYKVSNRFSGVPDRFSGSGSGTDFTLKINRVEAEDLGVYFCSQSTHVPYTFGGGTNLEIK", "RESULT UNITS": "fold", "MFI fold change to isotype ctrl": 9.8}
{"BINDER": "anti-CCR8 mAb 2-8 (antibody, V domains shown) VH: QVQLKESGPGLVAPSQSLSITCTVSGFSLTDYGVSWIRQPPGKGPEWLGVIWGGGNTYYNSVLKSRLSISNDNSKSQVFLRMNSLQTADTAIYYCARPRRDYYALDYWGQGTSVTVAS VL: DVVMTQTPLSLPVSLGDQASISCRSSQSLVYTNGNTFLHWYLQKPGQSPKLLIYKVSNRFSGVPDRFSGSGSGTDFTLKISRVEAEDLGVYFCSQSTHVPPTFGGGTKLEIK", "RESULT UNITS": "fold", "MFI fold change to isotype ctrl": 6.36}
{"BINDER": "anti-CCR8 mAb 2-7 (antibody, V domains shown) VH: QVQLKESGPGLVAPSQSLSITCTVSGFSLTDYRVSWIRQPPGKGLEWLGVIWGGRSTYYNSALKSRLSISKDNSKSQVFLKMNSLQTDDTAMYYCAKQGDGYYALDYWGQGTSVTVSS VL: DVVMTQTPLSLPVSLGDQASISCRSSQSLVHSYGNTYLHWYLQKPGQSPKLLIYKVSNRFSGVPDRFHGSGSGTDFTLKISRVEAEDLGVYFCSQSTHVPPTFGGGTKLEIK", "RESULT UNITS": "fold", "MFI fold change to isotype ctrl": 3.84}

Sample anti-CCR8 mAb 2-9 (antibody, V domains shown) VH: QVQLQQPGSELVRPGASVKLSCKASGYTFTSYWMHWVKQRPGQGLEWIGNIWPGSASTNYDEKFKNKATLTVDTSSSTAYMQLSSLTSEDSAVYYCIRGGKGAMDYWSQGTSVTVSS VL: DVVMTQIPLSLPVSLGDQASISCRSSQSLENSYGNTYLNWYLQKPGQSPQLLIYRVSNRFSGVLDRFSGSGSGTDFTLKISRVEAEDLGVYFCLQVTHVPPTFGAGTKLELK ; MFI fold change to isotype ctrl observed: 9.92
